Cited source: the supplement of paper PMC9170038

test system: MS2 coat protein; experiment: apparent KD of MS2 coat protein; designed switch direction (-1 OFF switch, 1 ON switch): -1; higher = weaker reporter binding; settings: Eterna round: R95; input ligand: FMN 200 uM
Consider the following sequences; for each one, report its apparent KD of MS2 coat protein.
One number for each entry, in nM.

Provide reported apparent KD of MS2 coat protein for each item, in the same order as listed.
1. AAUAAAGGAGGAUAUACAUGAGGAUCACCCAUGUGAAUAAAAUAAAUAAAAUGAUAAAGUAGAAGGCCUAAUAA [JMF's solution 3] (puzzle: Exclusion 3)
2. AGUACUAACACGAGAGUGUUAGUACAAUAAGCUUGUGAAACAUGAGGAUCACCCAUGUCCUCAUAAGCUCGUCUUAU [salish99_TOv2_r3_029] (puzzle: Sensor v3, turn-off variant 2)
3. AGUAACCGUCACGAAAGUGAUGGUUACAUAAGCAUAUGUACAUGAGGAUCACCCAUGUCCUCAACUGCUCGUUUUAU [Sensor 3 - 56] (puzzle: Sensor v3, turn-off variant 2)
4. CUUGUCCGAGGAUAUAUUUUGUGAUACAUGAGGAUCACCCAUGUUAUAAGAUGGAUAUAAAUAGAAGGCGGACGAG [Mat - Exclusion 5 - JL mod - D69] (puzzle: Exclusion 5)
5. UGUACGAUGCGUGCUGACAUGCGUCGUGCAGCAGGUGUUACAUGAGGAUCACCCAUGUCCUCAUUUGCUCGUCUUAU [SL-sv3-2.08 JL mod] (puzzle: Sensor v3, turn-off variant 2)
6. UAGGAGUCAGGAUAUGCGAGAGAUUGAAGUAAGGGAUGAGAGCAGAAGGGACAUGAGGAUCACCCAUGUAAGGA [JR_Exclu4_Sub092] (puzzle: Exclusion 4)

Response:
[33.5, 18.1, 292, 35.7, 250, 47.7]
